# Test system: PC-3 prostate
# protocol_summary: NCI tumour cell line growth inhibition, 48 h; in the data active = GI50 below about 0.43 µM; inactive = the rest
Possible outcomes: active, inactive

{"columns": ["compound", "qualitative_label"],
 "data": [
  ["CCCCCCCCCCCCOC1C(C(COC2OC(C(O)CN3CCCCC3)C3OC(C)(C)OC23)NC(=O)Nc2ccccc2)OC2OC(C)(C)OC21 (stereo not drawn)", "inactive"],
  ["CCOC(=O)c1c(C)n(CC(C)C)c2c1cc1oc(=O)c(=O)n3cnc2c13", "inactive"],
  ["O=C1/C(=C/c2ccc([N+](=O)[O-])s2)Oc2ccccc21", "active"],
  ["CCCC(=O)NC(c1ccc2c(c1)OCO2)c1ccc2cccnc2c1O (stereo not drawn)", "inactive"],
  ["COc1cc(C2CC(c3ccc4c(c3)OCO4)=NN2C(C)=O)cc(OC)c1OC (stereo not drawn)", "inactive"],
  ["O=C(CC1(O)C(=O)Nc2ccc(Br)cc21)c1ccc(C(=O)NCC2CCC3(CC2)OOC2(CCCCC2)OO3)cc1 (stereo not drawn)", "inactive"],
  ["COc1ccc(NC(=O)Nc2ccc(Nc3nc(C)cc(Nc4ccc(C)cc4)n3)cc2)cc1", "inactive"],
  ["NC(N)=N/N=C/c1cccc(Cl)c1Cl", "inactive"],
  ["COc1cccc2c1cc([N+](=O)[O-])c1c(C(=O)O)cc3c(c12)OCO3", "inactive"],
  ["CCOC(=O)N1C/C(=C/c2ccc(OC)cc2)C(=O)/C(=C/c2ccc(OC)cc2)C1", "inactive"],
  ["O=C(Nc1cccc2cccnc12)c1ccc(N2C(=O)[C@@H]3[C@H](C2=O)[C@@H]2C=C[C@H]3C2)cc1", "inactive"],
  ["CC(C)=CCC/C(C)=C/CC/C(=C/COP(=O)(OCc1ccc([N+](=O)[O-])o1)N(C)CCCCCl)CC=C(C)C (stereo not drawn)", "inactive"],
  ["COc1ccc2[nH]c(-c3cccc(N(C)C)c3)cc(=O)c2c1", "inactive"],
  ["CCN(Cc1nc2cc(C(F)(F)F)ccc2nc1-c1ccccc1)c1ccc(OC)c(OC)c1", "inactive"],
  ["Oc1ccc(Br)cc1/C=N/NC(=S)NC12CC3CC(CC(C3)C1)C2", "inactive"],
  ["CS(=O)c1ccc(-c2nc(-c3ccc(F)cc3)c(-c3ccncc3)[nH]2)cc1 (stereo not drawn)", "inactive"],
  ["C[C@@]1(c2ncncc2F)NC(=O)c2cc(-c3cn[nH]c3)ccc21", "inactive"],
  ["CN1CCN(Cc2ccc(NC(=O)c3[nH]ncc3Nc3ncnc4sccc34)cc2)CC1", "active"],
  ["CCCCCC(=O)OCC(=O)O[C@@H]1C[C@]2(C(C)C)O[C@@]1(C)[C@@H]1CC[C@@H](C)[C@H]1[C@@H]2OC(=O)/C=C/c1ccccc1", "inactive"],
  ["O=C(NCCN1CCOCC1)Nc1ccc(-c2cc3c(Nc4ccc(Oc5cccc(C(F)(F)F)c5)c(Cl)c4)ncnc3s2)cc1", "inactive"],
  ["COc1cc(-c2nc(SCC(=O)Nc3ccc(C(C)=O)cc3)[nH]c(=O)c2C#N)cc(OC)c1OC", "inactive"],
  ["COc1ccc(NC(=O)c2sc3nc(C)c(C(O)c4ccc(OC)cc4)cc3c2N)cc1 (stereo not drawn)", "inactive"],
  ["COC(=O)c1c2c(c(C)[n+]([O-])c1C)C(=O)C(NCc1cccc(OC)c1)=CC2=O", "inactive"]
]}
